Target: mMC3R (Mus musculus)
Sequence (P33033 whole entry): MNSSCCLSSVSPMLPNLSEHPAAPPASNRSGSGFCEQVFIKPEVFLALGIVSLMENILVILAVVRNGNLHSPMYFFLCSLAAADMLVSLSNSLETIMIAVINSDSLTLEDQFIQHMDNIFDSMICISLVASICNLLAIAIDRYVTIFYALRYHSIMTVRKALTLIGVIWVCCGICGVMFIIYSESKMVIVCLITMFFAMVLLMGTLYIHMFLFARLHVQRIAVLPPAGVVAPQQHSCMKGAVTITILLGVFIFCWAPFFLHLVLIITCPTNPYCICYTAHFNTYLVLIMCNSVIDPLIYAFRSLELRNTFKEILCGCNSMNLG
Assay: AlphaScreen cAMP assay, agonist activity
Conditions: up to 100 μM concentrations
Non-standard residues stand in square brackets, D forms with d. Residues, ends and D or L forms follow the SMILES beside them.

[
  {
    "Compound": "C[C@@H]1NC(=O)[C@H](CC(=O)O)NC(=O)[C@H](Cc2ccccc2)NC(=O)[C@H](Cc2ccccc2)NC(=O)[C@H](CCCNC(=N)N)NC(=O)[C@@H]2CCCN2C(=O)[C@H]2CCCN2C(=O)[C@H](Cc2ccccc2)NC1=O [Peptide 7, c[Pro-Arg-Phe-Phe-Asp-Ala-Phe-DPro]]",
    "agonist activity at the MC3R (in words)": "no agonist activity"
  },
  {
    "Compound": "C[C@@H]1NC(=O)[C@H](CO)NC(=O)[C@H](Cc2ccccc2)NC(=O)[C@H](Cc2ccccc2)NC(=O)[C@H](CCCNC(=N)N)NC(=O)[C@@H]2CCCN2C(=O)[C@H]2CCCN2C(=O)[C@H](Cc2ccccc2)NC1=O [Peptide 5, c[Pro-Arg-Phe-Phe-Ser-Ala-Phe-DPro]]",
    "agonist activity at the MC3R (in words)": "No agonist activity"
  },
  {
    "Compound": "C[C@@H]1NC(=O)[C@H](Cc2c[nH]cn2)NC(=O)[C@H](Cc2ccccc2)NC(=O)[C@H](Cc2ccccc2)NC(=O)[C@H](CCCNC(=N)N)NC(=O)[C@@H]2CCCN2C(=O)[C@H]2CCCN2C(=O)[C@H](Cc2ccccc2)NC1=O [Peptide 10, c[Pro-Arg-Phe-Phe-His-Ala-Phe-DPro]]",
    "agonist activity at the MC3R (in words)": "no agonist activity"
  },
  {
    "Compound": "C[C@@H]1NC(=O)[C@H]([C@@H](C)O)NC(=O)[C@H](Cc2ccccc2)NC(=O)[C@H](Cc2ccccc2)NC(=O)[C@H](CCCNC(=N)N)NC(=O)[C@@H]2CCCN2C(=O)[C@H]2CCCN2C(=O)[C@H](Cc2ccccc2)NC1=O [Peptide 6, c[Pro-Arg-Phe-Phe-Thr-Ala-Phe-DPro]] (cyclo(RFFTAF[dP]P))",
    "agonist activity at the MC3R (in words)": "No agonist activity"
  },
  {
    "Compound": "C[C@@H]1NC(=O)[C@@H](CN)NC(=O)[C@H](Cc2ccccc2)NC(=O)[C@H](Cc2ccccc2)NC(=O)[C@H](CCCNC(=N)N)NC(=O)[C@@H]2CCCN2C(=O)[C@H]2CCCN2C(=O)[C@H](Cc2ccccc2)NC1=O [Peptide 9, c[Pro-Arg-Phe-Phe-DDap-Ala-Phe-DPro]]",
    "agonist activity at the MC3R (in words)": "no agonist activity"
  }
]

====

Endpoint: activity at the MC5R (in words). System: UniProt:P41149. Items follow.
Sequence (P41149 whole entry): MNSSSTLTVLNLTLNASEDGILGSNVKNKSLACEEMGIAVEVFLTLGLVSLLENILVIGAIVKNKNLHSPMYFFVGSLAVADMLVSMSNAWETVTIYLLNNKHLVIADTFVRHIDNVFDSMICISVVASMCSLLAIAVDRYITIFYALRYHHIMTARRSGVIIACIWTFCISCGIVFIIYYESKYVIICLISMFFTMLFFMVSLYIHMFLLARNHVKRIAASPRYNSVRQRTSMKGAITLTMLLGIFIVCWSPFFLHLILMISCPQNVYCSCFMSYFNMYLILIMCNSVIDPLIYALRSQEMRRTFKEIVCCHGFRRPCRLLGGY
Non-standard residues stand in square brackets, D forms with d. Residues, ends and D or L forms follow the SMILES beside them.
Parameter Measured: activity at the MC5R (in words)

[
  {
    "Molecule": "C[C@@H]1NC(=O)[C@H](Cc2ccccc2)NC(=O)[C@H](Cc2ccccc2)NC(=O)[C@H](Cc2ccccc2)NC(=O)[C@H](CCCNC(=N)N)NC(=O)[C@@H]2CCCN2C(=O)[C@H]2CCCN2C(=O)[C@H](Cc2ccccc2)NC1=O [Peptide 14, c[Pro-Arg-Phe-Phe-Phe-Ala-Phe-DPro]]",
    "Target Or Test System": "UniProt:P41149",
    "Assay Result": "no activity"
  },
  {
    "Molecule": "N=C(N)NCCC[C@@H]1NC(=O)[C@@H]2CCCN2C(=O)[C@H]2CCCN2C(=O)[C@H](Cc2ccccc2)NC(=O)[C@H](CCC(=O)O)NC(=O)[C@H](CC(N)=O)NC(=O)[C@H](Cc2ccccc2)NC(=O)[C@H](Cc2ccccc2)NC1=O [Peptide 17, c[Pro-Arg-Phe-Phe-Asn-Glu-Phe-DPro]] (cyclo(RFFNEF[dP]P))",
    "Target Or Test System": "UniProt:P41149",
    "Assay Result": "no activity"
  },
  {
    "Molecule": "CCCC[C@@H]1NC(=O)[C@H](Cc2ccccc2)NC(=O)[C@H](Cc2ccccc2)NC(=O)[C@H](CCCNC(=N)N)NC(=O)[C@@H]2CCCN2C(=O)[C@H]2CCCN2C(=O)[C@H](Cc2ccccc2)NC(=O)[C@H](C)NC1=O [Peptide 11, c[Pro-Arg-Phe-Phe-Nle-Ala-Phe-DPro]]",
    "Target Or Test System": "UniProt:P41149",
    "Assay Result": "no activity"
  },
  {
    "Molecule": "CC(C)C[C@@H]1NC(=O)[C@H](CC(N)=O)NC(=O)[C@H](Cc2ccccc2)NC(=O)[C@H](Cc2ccccc2)NC(=O)[C@H](CCCNC(=N)N)NC(=O)[C@@H]2CCCN2C(=O)[C@H]2CCCN2C(=O)[C@H](Cc2ccccc2)NC1=O [Peptide 22, c[Pro-Arg-Phe-Phe-Asn-Leu-Phe-DPro]]",
    "Target Or Test System": "UniProt:P41149",
    "Assay Result": "no activity"
  },
  {
    "Molecule": "N=C(N)NCCC[C@@H]1NC(=O)[C@@H]2CCCN2C(=O)[C@H]2CCCN2C(=O)[C@H](Cc2ccccc2)NC(=O)[C@H](CCCCN)NC(=O)[C@H](CC(N)=O)NC(=O)[C@H](Cc2ccccc2)NC(=O)[C@H](Cc2ccccc2)NC1=O [Peptide 18, c[Pro-Arg-Phe-Phe-Asn-Lys-Phe-DPro]]",
    "Target Or Test System": "UniProt:P41149",
    "Assay Result": "partially stimulated"
  },
  {
    "Molecule": "N=C(N)NCCC[C@@H]1NC(=O)[C@@H]2CCCN2C(=O)[C@H]2CCCN2C(=O)[C@H](Cc2ccccc2)NC(=O)[C@H](Cc2ccccc2)NC(=O)[C@H](CC(N)=O)NC(=O)[C@H](Cc2ccccc2)NC(=O)[C@H](Cc2ccccc2)NC1=O [Peptide 20, c[Pro-Arg-Phe-Phe-Asn-Phe-Phe-DPro]]",
    "Target Or Test System": "UniProt:P41149",
    "Assay Result": "partially stimulated"
  }
]
